assay: Cell viability, Cell-Titer Glo (ATP levels), Hek 293T; type: cell-based; settings: human, Fig. 6C, read-out: Hek293T CC90
MEASUREMENT_KIND: CC90 at 48 h (µM)
Number only, in µM; omit the unit.

Form field CC90 at 48 h, entry `CCC(C)(C)C(=O)O[C@H]1C[C@@H](C)C=C2C=C[C@H](C)[C@H](CC[C@@H]3C[C@@H](O)CC(=O)O3)[C@H]21` : 126

----------
Assay: Cell viability, Cell-Titer Glo (ATP levels), Hek 293T
Format: cell-based
Conditions: human, Fig. 6C, read-out: Hek293T CC50
Description: The toxicity of the compounds was evaluated with Cell-Titer Glo (Promega) following the manufacturer’s indications. […] Next, 100 µl of CellTiter-Glo® reagent was added and let the luminescence signal stabilizes for 10 min. The luminescence was recorded on a VictorX multi-plate reader (Perking Elmer, Waltham, MA, USA). Fig. 6 Toxicity of hit compounds. […] Toxicity was analyzed by measuring ATP levels using the Cell-Titer Glo assay (Promega) following the manufacturer’s indications. […]
MEASUREMENT_KIND: CC50 at 48 h (µM)
The reply should be a number in µM, with the unit left off.

So, `CCC(C)(C)C(=O)O[C@H]1C[C@@H](C)C=C2C=C[C@H](C)[C@H](CC[C@@H]3C[C@@H](O)CC(=O)O3)[C@H]21` ? Its CC50 at 48 h was 34.2

----------
assay: Cell viability, Cell-Titer Glo (ATP levels), Vero E6; type: cell-based; conditions: African green monkey; 48 h, Fig. 6C
MEASUREMENT_KIND: CC50 (µM)
Report only the number, with the unit µM understood.

- COMPOUND: "C#C[C@]1(O)CC[C@H]2[C@@H]3CCc4cc(O)ccc4[C@H]3CC[C@@]21C"
  READING_UNIT: "µM"
  CC50: 96.6
- COMPOUND: "CC(C)OC(=O)CCC/C=C\\C[C@@H]1[C@@H](CC[C@@H](O)CCc2ccccc2)[C@H](O)C[C@@H]1O"
  READING_UNIT: "µM"
  CC50: 124
- COMPOUND: "COCCCOc1ccnc(C[S+]([O-])c2nc3ccccc3[nH]2)c1C (centres unmarked)"
  READING_UNIT: "µM"
  CC50: 123
- COMPOUND: "O=C(Nc1ccccc1)OCC(CN1CCCCC1)OC(=O)Nc1ccccc1 (centres unmarked)"
  READING_UNIT: "µM"
  CC50: 88

Lab note: next compound to report on.
So, `CCOc1ccc(Cc2nccc3cc(OCC)c(OCC)cc23)cc1OCC` ? Its CC50 was 120

----------
test: Cell viability, Cell-Titer Glo (ATP levels), Hek 293T; assay type: cell-based; settings: human; 48 h, Fig. 6C; read-out: Hek293T CC50
MEASUREMENT_KIND: CC50 (µM)
The reply should be a number in µM, with the unit left off.

Here are 4 compounds together with their reported answers.
- COMPOUND: "CC(C)OC(=O)CCC/C=C\\C[C@@H]1[C@@H](CC[C@@H](O)CCc2ccccc2)[C@H](O)C[C@@H]1O"
  CC50 (µM): 63.9
- COMPOUND: "O=C(Nc1ccccc1)OCC(CN1CCCCC1)OC(=O)Nc1ccccc1 (centres unmarked)"
  CC50 (µM): 41
- COMPOUND: "CCOc1ccc(Cc2nccc3cc(OCC)c(OCC)cc23)cc1OCC"
  CC50 (µM): 43.8
- COMPOUND: "C#C[C@]1(O)CC[C@H]2[C@@H]3CCc4cc(O)ccc4[C@H]3CC[C@@]21C"
  CC50 (µM): 49.9

Now for a further compound.
Form: compound = COCCCOc1ccnc(C[S+]([O-])c2nc3ccccc3[nH]2)c1C (centres unmarked) ; CC50 = 38.1
